assay: Pharmacokinetics in mice (plasma, brain, CSF); assay type: in vivo; settings: C57BL/6N ('9087), C57BL/6 (PS75), mouse, plasma, oral, from I.V. 10 mg/kg and P.O. 30 mg/kg dosing
Counter-ions that a name gives are not always drawn.
experimental-endpoint: bioavailability (%)
Write the answer as a number in %, unit excluded.

Prompt: Specify measured bioavailability for Clc1ccc2cccc(Nc3ccncc3)c2c1 [PS75, TFA] .
Response: 102

###

# AUC per entry
test: Pharmacokinetics in mice (plasma, brain, CSF); type: in vivo; conditions: C57BL/6N ('9087), C57BL/6 (PS75), mouse, plasma, iv, I.V. 10 mg/kg
Counter-ions that a name gives are not always drawn.
Express the result in ng·h/mL but write the number alone.

c1ccc2c(Nc3ccncc3)cncc2c1 [Compound 9087, N-(pyridin-4-yl)isoquinolin-4-amine] = 1750

# next molecule below
Prompt: Please supply the value of reported AUC for the item Clc1ccc2cccc(Nc3ccncc3)c2c1 [PS75, TFA]
Response: 3460
